Cited source for all entries: patent US20140079632A1

# Tested On: tPA (recombinant) (Homo sapiens, UniProt P00750)
# Sequence (P00750 36-562, species assumed): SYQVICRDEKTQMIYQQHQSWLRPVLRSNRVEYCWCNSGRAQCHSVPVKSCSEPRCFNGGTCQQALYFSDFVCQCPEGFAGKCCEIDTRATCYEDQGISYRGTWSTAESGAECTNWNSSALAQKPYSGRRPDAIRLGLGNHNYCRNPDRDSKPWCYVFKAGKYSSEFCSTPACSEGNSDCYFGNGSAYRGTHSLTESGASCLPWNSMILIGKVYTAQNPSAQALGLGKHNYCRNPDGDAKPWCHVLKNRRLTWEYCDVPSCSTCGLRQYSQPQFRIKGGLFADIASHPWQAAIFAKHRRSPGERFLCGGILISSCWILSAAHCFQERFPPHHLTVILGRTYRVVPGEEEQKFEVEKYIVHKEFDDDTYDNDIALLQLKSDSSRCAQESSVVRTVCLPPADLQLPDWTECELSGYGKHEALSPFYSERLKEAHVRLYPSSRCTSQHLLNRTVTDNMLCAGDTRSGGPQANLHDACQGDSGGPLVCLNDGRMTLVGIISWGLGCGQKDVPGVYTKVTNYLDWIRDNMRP
# Experimental Details: Selectivity: tPA inhibition, substrate Biophen CS-05(88)
# Condition Info: 15 min preincubation; Tris buffer pH 8.3; 1.25 mM substrate
# Method: The substrate and human enzyme were obtained from Nodia. The reaction was monitored at 405 nm, and the initial rate was determined between 0 and 0.25 absorbance units in 20 min. […] A 50 mM Tris buffer, pH 8.8, was used. […] The IC50 values for plasmin (from human plasma, Sigma), tPA (recombinant, Nodia), thrombin (from human plasma, Sigma), and FXa were determined in the same way as for uPA. […]
Listing: IC50 of selected compounds
Use µM as the unit, but write only the number.

The following compounds have reported results that may help.
C#CCCCOC(=O)NC(Cc1ccc(NC(=N)N)cc1)P(=O)(Oc1ccccc1)Oc1ccccc1.O=C(O)C(F)(F)F (stereo not drawn) [Intermediate 58, 2,2,2-trifluoroacetate] = 29
N=C(N)Nc1ccc(CC(NC(=O)OCCCc2cn(CCOCCOCCOCCNC(=O)CCCC[C@@H]3SC[C@@H]4NC(=O)N[C@@H]43)nn2)P(=O)(Oc2ccccc2)Oc2ccccc2)cc1.O=C(O)C(F)(F)F (stereo partly drawn) [Final compound 7, 2,2,2-trifluoroacetate] = 58
CCN(CC)c1ccc2c(-c3ccccc3C(=O)N3CCN(C(=O)CCCCCCCn4cc(CCCOC(=O)NC(Cc5ccc(NC(=N)N)cc5)P(=O)(Oc5ccccc5)Oc5ccccc5)nn4)CC3)c3ccc(=[N+](CC)CC)cc-3oc2c1.O=C(O)C(F)(F)F.[Cl-] (stereo not drawn) = 8
C#CCOCCOCCOCCOC(=O)NC(Cc1ccc(NC(=N)N)cc1)P(=O)(Oc1ccccc1)Oc1ccccc1.O=C(O)C(F)(F)F (stereo not drawn) [Intermediate 57, 2,2,2-trifluoroacetate] = 67

Please give the measured IC50 for this compound: O=C(O)C(F)(F)F.[N-]=[N+]=NCCOCCOCCOCCOC(=O)NC(Cc1ccc(NC(=N)N)cc1)P(=O)(Oc1ccccc1)Oc1ccccc1 (stereo not drawn) [Intermediate 62, 2,2,2-trifluoroacetate]
70
